experimental-details: yeast display, Sf9 membrane polyspecificity reagent, FACS + sequencing; frameworks hold sequencing errors
value-kind: polyreactivity (PSR sort gate)

QLQLVESGGGLVQAGGSLRLSCAASGSIFFSYAMGWYRQAPGKERELVAAIDYSGGGTYYADSVKGRFTISRDNAKNTVYLQMNSLKPEDTAVYYCNSDTEVWADTFISYRALNYWGQGTQVTVSS low polyreactivity
QVQLVESGGGLVQAGGSLRLSCAASGITFSYALGWYRQAPGKERELVAGITTSGGSTYADSVKGRFTISRDNAKNTVYLQMNSLKPEDTAVYYCAADRSAVQFSAFLEYDYWGQGSQVTVSS low polyreactivity
QVHLVESGGGLVQAGGSLRISCAASGNIFPNNGMGWNRQAPGKERELVAAISFNGDDTYADSVKGRFTISRDNAKNTVYLKMNSLNPEDTAVYYCNAVPGADQFSAPVITTAEDYWGQGTQVTVSS low polyreactivity
QVQLVESGGGLVQAGGSLRLSCAASGSIFRQYAMGWYRQAPGKERELVAAISRGGITYYADSVKGRFTISRDNAKNTVYLQMNSLKPEDTAVYYCAARYGRGERGGFYWGQGTQVTVSS high polyreactivity
QVQLVESGGGLVQAGGSLRLSCAASGFIFRDNAMGWYRQSPGKERELVAAISERGGRTYYADSVKGRFTISRDNAKNTVYLQMNSLKPEDTAVYYCADEDIAKFYYWGQGTQVTVSS high polyreactivity
QVQLVETGGGLVQAGGSLRLSCAASGSIFFDYAKGWSRQAPGKERELVAAIRWSGGRTSYADSVKGRFTISRDNAKNSVYLQMNSVKPEDTAVYYCSARWNRVRYGFDYWGQGTQVTVSS high polyreactivity

Enquiry: Record request: polyreactivity (PSR sort gate) value, item QVQIVESGGGLVQAGGSLRLSCAASGSTFSYNAMGWYRQAPGKERELVATISNTDSTNYADSVKGRFTISRDNAKNTLYLQMNSLKPEDTSVYSCAAVVSTVDGMEYWGQGTQVNVSS
Return: low polyreactivity

Enquiry: Another sequence: QVQLVESGGGLVQAGGSLRLSCAASGFIFLIYAMGWYRQAPGKERELVATIRYSGGRTYYADSVKGRFTISRDNAKNTVYLQMNSLKPEDTAVYYCAARSVWFSGQGRMNYWGQGTQVTVSS
Return: high polyreactivity

Enquiry: Another sequence: QVQLVESGGGLVQAGGSLRLSCAASGFIFIYYAMGWYRQAPGKERELVAGITSGGSTNYADSVKGRFTISRDNAKNTVYLQMNSLKPEDTAVYYCAAGSSARWYPRYNYWGQGTQVTVSS
Return: high polyreactivity

Enquiry: Another sequence: QVQLVESGGGLVQAGGSLRFSCAASGFTFVINDMGWYRQAPGKERELVADITSGGDTYYADSVKGRFTISRDNAKNTVYLQMNSLKPEDTAVYYCAADIYPDWIYLLYGYWGQGTQVTVSS
Return: low polyreactivity

Enquiry: Another sequence: QVQHVESVRGLVQAGGSLRLSCDASGIIFYSYAMGWYRQAPGKERELVARISTRGGSTYYADSVKGRFTISRDNAKNTVYLQMNSLKPEDTAVYYCAARYSRYIRFPYDYWGQGTQVTVSS
Return: high polyreactivity

The measurements presented in this section are drawn from the nanobody polyreactivity screen of Harvey et al. (2022).
